- tested target: humanized development candidate monoclonal antibody IgG4 (hIgG4)
- experiment notes: direct ELISA, hIgG4 coated, B-cell culture medium
recorded endpoint: OD450 (OD450)
Give the value, in units of OD450, as a plain number.

The cases that follow already have their OD450 on record.
rabbit anti-human IgG monoclonal antibody clone 19B1 (antibody, V domains shown) VH: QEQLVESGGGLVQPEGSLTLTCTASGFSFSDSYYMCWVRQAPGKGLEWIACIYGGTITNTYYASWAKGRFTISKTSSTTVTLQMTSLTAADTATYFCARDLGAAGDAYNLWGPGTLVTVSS VL: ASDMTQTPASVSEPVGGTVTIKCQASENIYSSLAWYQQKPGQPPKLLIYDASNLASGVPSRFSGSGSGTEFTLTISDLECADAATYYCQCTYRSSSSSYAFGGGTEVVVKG
0.954
rabbit anti-human IgG monoclonal antibody clone 11F9 (antibody, V domains shown) VH: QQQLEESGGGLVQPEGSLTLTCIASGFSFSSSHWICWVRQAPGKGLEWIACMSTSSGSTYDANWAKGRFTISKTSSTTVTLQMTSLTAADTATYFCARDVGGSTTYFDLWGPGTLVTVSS VL: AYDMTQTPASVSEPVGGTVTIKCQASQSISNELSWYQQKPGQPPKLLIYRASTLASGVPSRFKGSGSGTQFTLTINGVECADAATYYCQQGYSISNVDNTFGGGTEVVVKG
0.91
rabbit anti-human IgG monoclonal antibody clone 2C5 (antibody, V domains shown) VH: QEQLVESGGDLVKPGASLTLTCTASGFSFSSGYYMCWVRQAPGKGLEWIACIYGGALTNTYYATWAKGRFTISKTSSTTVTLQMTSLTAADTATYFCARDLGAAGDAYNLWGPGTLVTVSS VL: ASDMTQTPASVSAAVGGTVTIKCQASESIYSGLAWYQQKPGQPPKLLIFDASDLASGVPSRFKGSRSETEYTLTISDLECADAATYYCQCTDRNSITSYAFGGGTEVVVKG
1.29

Okay, now this binder:
Report measured OD450; entry is rabbit anti-human IgG monoclonal antibody clone 11G5 (antibody, V domains shown) VH: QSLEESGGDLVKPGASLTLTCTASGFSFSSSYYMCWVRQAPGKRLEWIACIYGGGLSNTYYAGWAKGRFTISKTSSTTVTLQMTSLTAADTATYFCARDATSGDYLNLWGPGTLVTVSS VL: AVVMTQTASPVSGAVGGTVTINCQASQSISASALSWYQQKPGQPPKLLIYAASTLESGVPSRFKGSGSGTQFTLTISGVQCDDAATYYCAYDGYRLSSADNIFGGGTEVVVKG
1.32

Data origin, for the record: patent US20250237662A1
